# Test system: BCL6 (Homo sapiens (Human))
# Assay summary: BCL6 TR-FRET assay (BCL6-Avitag-Biotin / BCoR-Cy5 peptide)
# Format: binding
Endpoint: EC50

The cases that follow already have their EC50 on record.
Molecule	EC50
CN1C(=O)CCc2cc(Nc3nc(N4CCN(CC5CCN(c6cccc7c6C(=O)N(C6CCC(=O)NC6=O)C7=O)CC5)CC4)ncc3Cl)ccc21 (centres unmarked)	> 100 nM
CNC(=O)COc1cc2cc(Nc3nc(N4CCCN(CC5CCN(c6ccc7c(c6)C(=O)N(C6CCC(=O)NC6=O)C7=O)CC5)CC4)ncc3Cl)ccc2n(C)c1=O (centres unmarked)	50 to 100 nM
CNC(=O)COc1cc2cc(Nc3nc(N4CCC[C@H](COc5ccc6c(c5)C(=O)N(C5CCC(=O)NC5=O)C6=O)C4)ncc3Cl)ccc2n(C)c1=O (some centres unmarked)	10 to 50 nM
CNC(=O)COc1cc2cc(Nc3nc(N4CCC(CN5CCN(c6ccc7c(c6)C(=O)N(C6CCC(=O)NC6=O)C7=O)CC5=O)CC4)ncc3Cl)ccc2n(C)c1=O (centres unmarked)	10 to 50 nM
CC(=O)COc1cc2cc(Nc3nc(N4CCN(CCCN5CCN(c6ccc7c(c6)C(=O)N(C6CCC(=O)NC6=O)C7=O)CC5)CC4)ncc3Cl)ccc2n(C)c1=O (centres unmarked)	< 10 nM

Inquiry: Give EC50 for the following molecule: CNC(=O)COc1cc2cc(Nc3nc(N4CCN(CC(C)(C)N5CCN(c6ccc7c(c6)C(=O)N(C6CCC(=O)NC6=O)C7=O)CC5)CC4)ncc3Cl)ccc2n(C)c1=O (centres unmarked)
Reply text: 10 to 50 nM

Inquiry: Give EC50 for the following molecule: CN1C(=O)CCc2cc(Nc3nc(N4CCN(CC5CCN(c6ccc7c(c6)C(=O)N(C6CCC(=O)NC6=O)C7=O)CC5)CC4)ncc3Cl)ccc21 (centres unmarked)
Reply text: > 100 nM

Inquiry: Give EC50 for the following molecule: CNC(=O)COc1cc2cc(Nc3nc(N4CCN5CCN(c6ccc7c(c6)C(=O)N(C6CCC(=O)NC6=O)C7=O)CC5C4)ncc3Cl)ccc2n(C)c1=O (centres unmarked)
Reply text: < 10 nM

Inquiry: Give EC50 for the following molecule: CONC(=O)COc1cc2cc(Nc3nc(N4CCC(CN5CCN(c6ccc7c(c6)C(=O)N(C6CCC(=O)NC6=O)C7=O)CC5)CC4)ncc3Cl)ccc2n(C)c1=O (centres unmarked)
Reply text: > 100 nM

Inquiry: Give EC50 for the following molecule: CNC(=O)COc1cc2cc(Nc3nc(N4CCN(CC5CCN(c6cnc(C(=O)NC7CCC(=O)NC7=O)nc6)CC5)CC4)ncc3Cl)ccc2n(C)c1=O (centres unmarked)
Reply text: 10 to 50 nM

Inquiry: Give EC50 for the following molecule: "CC(=O)[C@@H](C)Oc1cc2cc(Nc3nc(N4CCC(CN5CCN(c6ccc7c(c6)C(=O)N([C@@H]6CCC(=O)NC6=O)C7=O)CC5)CC4)ncc3Cl)ccc2n(C)c1=O"
Reply text: > 100 nM
